Reference source for all entries: ChEMBL document CHEMBL4308867

Experiment: Stability in rat microsomes assessed as parent compound remaining at 0.5 uM measured after 0.5 hrs
Format: ADME, Microsome
Conditions: read-out: Stability
measured_metric: remaining at 0.5 h, 0.5 µM (%)
Give the number; % is assumed, so skip it.

q: Please report remaining at 0.5 h, 0.5 µM for the following compound: COC(=O)C1(NC(=O)C2=C(O)[C@@H]3Oc4c(O)ccc5c4[C@@]34CCN(CC3CC3)[C@H](C5)[C@]4(O)C2)CC1
a: 103

q: Please report remaining at 0.5 h, 0.5 µM for the following compound: O=C(O)c1ccc2c3c([nH]c2c1)[C@@H]1Oc2c(O)ccc4c2[C@@]12CCN(CC1CC1)[C@H](C4)[C@]2(O)C3
a: 97

q: Please report remaining at 0.5 h, 0.5 µM for the following compound: CC(C)(NC(=O)C1=C(O)[C@@H]2Oc3c(O)ccc4c3[C@@]23CCN(CC2CC2)[C@H](C4)[C@]3(O)C1)c1nc(-c2ccccc2)no1
a: 76

q: Please report remaining at 0.5 h, 0.5 µM for the following compound: O=C(C1=C(O)[C@@H]2Oc3c(O)ccc4c3[C@@]23CCN(CC2CC2)[C@H](C4)[C@]3(O)C1)N1CCCC1
a: 24

----------
I'd be grateful if you could share measured Cmax for these entries.
Assay: Cmax in rat brain at 1 mg/kg, po administered as cassette dose
Type: ADME, organism-based
Set-up: dose 1 mg/kg, route oral
Give the number; ng/mL is assumed, so skip it.

q: Please report Cmax for the following molecule: COC(=O)C(C)(C)NC(=O)C1=C(O)[C@@H]2Oc3c(O)ccc4c3[C@@]23CCN(CC2CC2)[C@H](C4)[C@]3(O)C1
a: 5.1

q: Please report Cmax for the following molecule: O=C(O)c1ccc2c3c([nH]c2c1)[C@@H]1Oc2c(O)ccc4c2[C@@]12CCN(CC1CC1)[C@H](C4)[C@]2(O)C3
a: 0.023

q: Please report Cmax for the following molecule: CC(=O)C1=C(O)[C@@H]2Oc3c(O)ccc4c3[C@@]23CCN(CC2CC2)[C@H](C4)[C@]3(O)C1
a: 5.8

q: Please report Cmax for the following molecule: Cc1n[nH]c2c1C[C@@]1(O)[C@H]3Cc4ccc(O)c5c4[C@@]1(CCN3CC1CC1)[C@H]2O5
a: 2.2

----------
Assay: Cmax in rat brain at 1 mg/kg, po administered as cassette dose
Format: ADME, organism-based
Parameters: dose 1 mg/kg, route oral
Rule for this label: rule met means Cmax is less than 0.3 ng/mL; rule not met means Cmax is at least 0.3 ng/mL.

q: Here's an entry: O=C(NCc1ccccc1)C1=C(O)[C@@H]2Oc3c(O)ccc4c3[C@@]23CCN(CC2CC2)[C@H](C4)[C@]3(O)C1 . Is its Cmax below 0.3 ng/mL?
a: rule not met

q: Here's an entry: Cc1nc(N)nc2c1C[C@@]1(O)[C@H]3Cc4ccc(O)c5c4[C@@]1(CCN3CC1CC1)[C@H]2O5 . Is its Cmax below 0.3 ng/mL?
a: rule not met

q: Here's an entry: O=C(C1=C(O)[C@@H]2Oc3c(O)ccc4c3[C@@]23CCN(CC2CC2)[C@H](C4)[C@]3(O)C1)N1CCCC1 . Is its Cmax below 0.3 ng/mL?
a: rule not met

q: Here's an entry: CC(C)(NC(=O)C1=C(O)[C@@H]2Oc3c(O)ccc4c3[C@@]23CCN(CC2CC2)[C@H](C4)[C@]3(O)C1)c1nc(-c2ccccc2)no1 . Is its Cmax below 0.3 ng/mL?
a: rule not met

q: Here's an entry: O=C(O)c1ccc2c3c([nH]c2c1Cl)[C@@H]1Oc2c(O)ccc4c2[C@@]12CCN(CC1CC1)[C@H](C4)[C@]2(O)C3 . Is its Cmax below 0.3 ng/mL?
a: rule met

q: Here's an entry: O=C(Nc1ccccn1)C1=C(O)[C@@H]2Oc3c(O)ccc4c3[C@@]23CCN(CC2CC2)[C@H](C4)[C@]3(O)C1 . Is its Cmax below 0.3 ng/mL?
a: rule not met

q: Here's an entry: CC(C)(NC(=O)C1=C(O)[C@@H]2Oc3c(O)ccc4c3[C@@]23CCN(CC2CC2)[C@H](C4)[C@]3(O)C1)C(=O)NS(C)(=O)=O . Is its Cmax below 0.3 ng/mL?
a: rule met

q: Here's an entry: C[C@H](CO)NC(=O)C1=C(O)[C@@H]2Oc3c(O)ccc4c3[C@@]23CCN(CC2CC2)[C@H](C4)[C@]3(O)C1 . Is its Cmax below 0.3 ng/mL?
a: rule met

q: Here's an entry: N#Cc1ccc(NC(=O)C2=C(O)[C@@H]3Oc4c(O)ccc5c4[C@@]34CCN(CC3CC3)[C@H](C5)[C@]4(O)C2)cc1 . Is its Cmax below 0.3 ng/mL?
a: rule not met

q: Here's an entry: CC(C)(NC(=O)C1=C(O)[C@@H]2Oc3c(O)ccc4c3[C@@]23CCN(CC2CC2)[C@H](C4)[C@]3(O)C1)C(=O)O . Is its Cmax below 0.3 ng/mL?
a: rule met

q: Here's an entry: O=C(Nc1ccc2cc[nH]c2c1)C1=C(O)[C@@H]2Oc3c(O)ccc4c3[C@@]23CCN(CC2CC2)[C@H](C4)[C@]3(O)C1 . Is its Cmax below 0.3 ng/mL?
a: rule not met

q: Here's an entry: CCC(=O)C1=C(O)[C@@H]2Oc3c(O)ccc4c3[C@@]23CCN(CC2CC2)[C@H](C4)[C@]3(O)C1 . Is its Cmax below 0.3 ng/mL?
a: rule not met

q: Here's an entry: Cc1noc(C(C)(C)NC(=O)C2=C(O)[C@@H]3Oc4c(O)ccc5c4[C@@]34CCN(CC3CC3)[C@H](C5)[C@]4(O)C2)n1 . Is its Cmax below 0.3 ng/mL?
a: rule met

q: Here's an entry: COC(=O)C1(NC(=O)C2=C(O)[C@@H]3Oc4c(O)ccc5c4[C@@]34CCN(CC3CC3)[C@H](C5)[C@]4(O)C2)CC1 . Is its Cmax below 0.3 ng/mL?
a: rule not met
